- TARGET OR TEST SYSTEM: T1, Tat44-60 WT (HIV-1, UniProt P04608)
- T1 chain: GISYGRKKRRQRRRAHQ
- EXPERIMENT DESCRIPTION: ITC; 1 mM Mg2+
- EXPERIMENTAL CONDITIONS: label: 3' FAM in FP; none in ITC and SEC-MALS; hairpin, blunt 2 G-C end; bulges C5, A17, U23-C24-U25
REPORTED ENDPOINT: Kd

Prompt: What does the data say about its Kd? Entry: TAR2GC (WT) (structured_RNA) RNA: GGUCUCUCUGGUUAGACCAGAUCUGAGCCUGGGAGCUCUCUGGCUAACUAGGGAACC
Completion: 160 nM

These entries and their values trace back to paper PMC11885821.
